Attribute: T/C
- System: BDF1 mice, Adenocarcinoma 755 s.c., tumor weight T/C
- ASSAY OVERVIEW: NCI In Vivo Anticancer Drug Screen. Data for tumor model Adenocarcinoma 755 (subcutaneous) in B6D2F1 (BDF1) mice
- STATED CONDITIONS: endpoint: mean tumor weight; dose: 400.0 mg/kg/injection; schedule: Q01DX011 (sc); vehicle: steriod suspending solution; higher = larger tumour
- Description: The antitumor activity of compounds was measured in mice bearing transplantable tumors. Survival or tumor size were measured and the results are expressed as the measurement made in the treated group (T) divided by the measurement made in the vehicle treated control group (C). The tumor model used in this assay is Adenocarcinoma 755 (subcutaneous) in B6D2F1 (BDF1) mice
TEST READOUT: T/C

>  <COMPOUND>
CCC(=O)O[C@H]1CC[C@H]2[C@@H]3CCC4=CC(=O)CC[C@]4(C)[C@H]3CC[C@]12C

>  <READING>
69 % of control

$$$$
>  <COMPOUND>
CC1CC2(C)C(=CC1=O)CCC1C3CCC(C)(O)C3(C)CC(O)C12F (centres undefined)

>  <READING>
92 % of control

$$$$
>  <COMPOUND>
C[C@H]1C[C@@H]2[C@H]([C@@H](O)C[C@@]3(C)[C@H]2CC[C@]3(O)C(=O)CF)[C@@]2(C)C=CC(=O)C=C12

>  <READING>
23 % of control

$$$$
>  <COMPOUND>
CC(=O)[C@H]1[C@H](O)C[C@H]2[C@@H]3CCC4=CC(=O)CC[C@]4(C)[C@@]3(F)[C@@H](O)C[C@@]21C

>  <READING>
36 % of control

$$$$
